method_notes: qHTS assay to identify small molecule agonists of the sonic hedgehog signaling (Shh) pathway (AID 1259368);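 further: NIH/3T3-derived 3T3Gli1-Luc cells carrying a stable Gli1-driven firefly luciferase reporter; nearly all actives have a fitted effect of over 15% in size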
settings: NIH/3T3 Gli1-Luc reporter, luciferase, 24 h; series mostly up to 92.4 µM
The source made the active and inactive calls. The call rests on the fitted dose curve.
readout_type: activity change

Sample answers from the record:
Problem: Data request, read-out activity change, for Brc1cc(-c2ccc(Br)c(Br)c2Br)cc(Br)c1Br
Result: inactive

Problem: Then O=C(CCC1CCN(Cc2ccccc2)CC1)c1ccc2c(c1)NCCCC2 ?
Result: inactive

Problem: Then CN1CCN(CCCN2c3ccccc3Sc3ccc(S(=O)(=O)N(C)C)cc32)CC1 ?
Result: inactive

Problem: Then CC[C@@H]([C@H](C)O)n1ncn(-c2ccc(N3CCN(c4ccc(OC[C@@H]5CO[C@@](Cn6cncn6)(c6ccc(F)cc6F)C5)cc4)CC3)cc2)c1=O ?
Result: inactive

Problem: Then Cc1cc(S(=O)(=O)O)ccc1N=Nc1c(O)ccc2ccccc12 ?
Result: inactive

Next:
Problem: Data request, read-out activity change, for CCCCOC(=O)CCS
Result: inactive

Problem: Then C[C@@H]1C[C@H]2[C@@H]3CCC4=CC(=O)C=C[C@]4(C)[C@@]3(F)[C@@H](O)C[C@]2(C)[C@@]1(O)C(=O)CO ?
Result: inactive

Problem: Then CO/N=C1\CN(c2nc3c(cc2F)c(=O)c(C(=O)O)cn3C2CC2)CC1CN (configuration not stated) ?
Result: inactive

Problem: Then COC(OC)(C(=O)c1ccccc1)c1ccccc1 ?
Result: inactive

Problem: Then O=Cc1c(Cl)cccc1Cl ?
Result: inactive

Problem: Then OCC1CC=CCC1 (configuration not stated) ?
Result: inactive

Problem: Then Oc1cc(O)c(Cl)cc1Cl ?
Result: inactive

Problem: Then CO[C@H]1O[C@H](CO)[C@@H](O)[C@H](O)[C@H]1O ?
Result: inactive

Problem: Then COC(=O)[C@@H]1CC2=CC(=O)CC[C@]2(C)[C@@]23O[C@@H]2C[C@@]2(C)[C@@H](CC[C@@]24CCC(=O)O4)[C@H]13 ?
Result: inactive

Problem: Then CCCOC(=O)c1ccc(C(=O)OCCC)nc1 ?
Result: inactive

----------
method_notes: qHTS assay for small molecule disruptors of the mitochondrial membrane potential - cell viability (AID 720634);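 further: human HepG2 liver cancer cells; nearly all actives have a fitted effect of over 20% in size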
settings: HepG2 viability, ATP luminescence (CellTiter-Glo), 1 h; series mostly up to 83.2 µM
Inconclusive results are not listed. Active and inactive are the calls of the source. The call rests on the fitted dose curve.
readout_type: activity change, negative = cytotoxicity

Sample answers from the record:
Problem: Data request, read-out activity change, negative = cytotoxicity, for O=C(N[C@@H](c1ccccc1)[C@@H]1CCCCN1)c1cccc(C(F)(F)F)c1Cl
Result: inactive

Problem: Then OC/C(Br)=C(\Br)CO ?
Result: inactive

Problem: Then CCCOC(=O)c1ccc(N)cc1 ?
Result: inactive

Problem: Then CO/N=C1\CN(c2nc3c(cc2F)c(=O)c(C(=O)O)cn3C2CC2)CC1CN (stereo unspecified) ?
Result: inactive

Problem: Then CCn1nc(C)c2c1C(=O)NCC(c1ccc(O)cc1)=N2 ?
Result: inactive

Here is the next item to consider.
Problem: Data request, read-out activity change, negative = cytotoxicity, for C=CC(=C)CCCC(C)(C)OC(C)=O
Result: inactive

----------
assay_system: Cytochrome P450 2C9 (Homo sapiens) (UniProt P11712)
Sequence (P11712 whole entry, looked up): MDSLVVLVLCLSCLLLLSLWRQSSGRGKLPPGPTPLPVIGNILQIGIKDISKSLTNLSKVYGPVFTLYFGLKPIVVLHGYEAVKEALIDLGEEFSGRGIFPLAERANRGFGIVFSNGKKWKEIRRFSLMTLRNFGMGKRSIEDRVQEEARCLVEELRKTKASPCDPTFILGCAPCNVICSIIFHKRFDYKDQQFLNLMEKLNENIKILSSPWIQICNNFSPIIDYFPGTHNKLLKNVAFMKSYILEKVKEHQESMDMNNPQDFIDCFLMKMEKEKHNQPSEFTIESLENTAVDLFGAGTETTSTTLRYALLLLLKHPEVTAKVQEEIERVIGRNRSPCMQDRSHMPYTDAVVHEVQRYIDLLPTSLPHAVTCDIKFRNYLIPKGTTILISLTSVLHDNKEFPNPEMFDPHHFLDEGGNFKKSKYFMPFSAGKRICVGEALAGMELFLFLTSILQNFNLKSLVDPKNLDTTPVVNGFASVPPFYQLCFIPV
method_notes: Cytochrome P450 Family 2 Subfamily C Member 9 (CYP2C9) small molecule antagonists: luciferase reporter qHTS assay (AID 1671198); further: nearly all actives have a fitted effect of over 50% in size; further: potency means the concentration at half of the fitted maximal effect
settings: P450-Glo CYP2C9 enzyme assay, luciferin luminescence; series mostly up to 115 µM
Records with an inconclusive call do not appear. Active and inactive are the calls of the source. The call rests on the fitted dose curve; in most records, active means well fitted inhibition curve with a large enough effect in the repeat runs; inconclusive means weak or mixed curves; inactive means no such curve, though single readings can be large or run the other way.
readout_type: Potency

Sample answers from the record:
Problem: Data request, read-out Potency, for O=C(c1ccc(O)cc1)c1ccc(Cl)cc1
Result: 25.7 µM (active)

Problem: Then CCCCCCCC/C=C\CCCCCCCC(=O)OC(CO)CO ?
Result: 20 µM (active)

Problem: Then Cc1ccc(Nc2nccc(N(C)c3ccc4c(C)n(C)nc4c3)n2)cc1S(N)(=O)=O ?
Result: 15.5 µM (active)

Problem: Then COc1cc2ncnc(Nc3ccc(F)c(Cl)c3)c2cc1OCCCN1CCOCC1 ?
Result: inactive

Problem: Then CCOC(=O)CC(=O)C(=O)OCC ?
Result: 39.9 µM (active)

Problem: Then C[N+]1(C)CCC(=C(c2ccccc2)c2ccccc2)CC1 ?
Result: inactive

Next:
Problem: Data request, read-out Potency, for NCC1CCCC(CN)C1 (stereo unspecified)
Result: inactive

Problem: Then C/C(=N/NC(=O)c1ccncc1)C(=O)O ?
Result: inactive

Problem: Then O=C(CCCCCCCCC#CI)Oc1ccccc1 ?
Result: 17.4 µM (active)
